- System: L. donovani HU3 strain in mouse peritoneal macrophages
- RUN DESCRIPTION: Assay for inhibition of parasitemia of Leishmania donovani in mouse macrophages (SYBR Green nuclei count, high-content imaging)
- Format: cell-based
- CONDITION SUMMARY: Leishmania donovani, Peritoneal macrophage, L. donovani in mouse peritoneal macrophages; read-out: L. donovani in Mouse Macrophages EC50
pEC50: −log10 of the molar value.
Grouping key: pEC50. Bins: class A (below 6), class B (6 to below 8), class C (8 or more)

// known answers, use as guide
[[record]]
molecule = "CN(C)C(=O)Nc1ccc(F)c(-n2cc3cc(N(C)C)cnc3n2)c1 [Compound 143]"
class_assignment = "class B"

[[record]]
molecule = "O=C(Nc1ccc(F)c(-n2cc3cc(-c4ccccn4)cnc3n2)c1)N1CC[C@@H](F)C1 [Compound 53]"
class_assignment = "class C"

[[record]]
molecule = "O=C(Nc1ccc(F)c(-n2cc3cc(N4C5COCC4C5)cnc3n2)c1)N1CC(F)C1 [Compound 263]"
class_assignment = "class B"

[[record]]
molecule = "CC(C)c1cnc2nn(-c3cc(NC(=O)CCC4CC4)ccc3F)cc2c1 [Compound 215]"
class_assignment = "class A"

[[record]]
molecule = "O=C(Nc1cccc(-n2cc3cc(-c4ccccn4)cnc3n2)c1)N1CCC1 [Compound 344]"
class_assignment = "class C"


Lookup: Sort CCC(C)(C)c1cnc2nn(-c3cc(NC(=O)c4ccco4)ccc3F)cc2c1 [Compound 60] into one of the categories.
Found: class A

Lookup: Hi, small favor: classify CC(C)c1cnc2nn(-c3cc(NC(=O)c4ccco4)ccc3F)cc2c1 [Compound 196] by its pEC50 when you get a moment.
Found: class A

Lookup: Lab note: which band did CC(C)OC(=O)Nc1cnc2nn(-c3cc(NC(=O)N4CCC4)ccc3F)cc2c1 [Compound 138] land in?
Found: class C

###

- Test system: L. donovani HU3 strain in mouse peritoneal macrophages
- RUN DESCRIPTION: Assay for inhibition of parasitemia of Leishmania donovani in mouse macrophages (SYBR Green nuclei count, high-content imaging)
- Type: cell-based
- CONDITION SUMMARY: Leishmania donovani, Peritoneal macrophage, L. donovani in mouse peritoneal macrophages; read-out: L. donovani in Mouse Macrophages EC50
So basically every entry gets a class from its EC50, ranges being class 0 = under 0.01 µM, class 1 = from 0.01 µM up to 0.06 µM, class 2 = 0.06 µM and over

Reference set, count: 5
[[record]]
compound = "CC1(C)C=C(C(=O)Nc2ccc(F)c(-n3cc4cc(-c5ccccn5)cnc4n3)c2)C1"
class_assignment = "class 1"

[[record]]
compound = "Cc1nc(C)c(C(=O)Nc2ccc(F)c(-n3cc4cc(Br)cnc4n3)c2)o1"
class_assignment = "class 2"

[[record]]
compound = "O=C(Nc1ccc(Cl)c(-n2cc3cc(N4CC(F)(F)C4)cnc3n2)c1)N1CCC1"
class_assignment = "class 1"

[[record]]
compound = "CCC(C)(C)c1cnc2nn(-c3cc(NC(=O)N4CC(F)C4)ccc3F)cc2c1"
class_assignment = "class 2"

[[record]]
compound = "O=C(Nc1ccc(F)c(-n2cc3cc(-c4ncccc4Cl)cnc3n2)c1)N1CC[C@@H](F)C1"
class_assignment = "class 0"


Attention now shifts to the item below.
Lookup: Hi, small favor: classify CCC(C)c1cnc2nn(-c3cc(NC(=O)N4CC[C@@H](F)C4)ccc3F)cc2c1 (stereo partly drawn) by its EC50 when you get a moment.
Found: class 2

###

- Test system: L. donovani HU3 strain in mouse peritoneal macrophages
- RUN DESCRIPTION: Assay for inhibition of parasitemia of Leishmania donovani in mouse macrophages (SYBR Green nuclei count, high-content imaging)
- Type: cell-based
- CONDITION SUMMARY: Leishmania donovani, Peritoneal macrophage, L. donovani in mouse peritoneal macrophages; read-out: L. donovani in Mouse Macrophages EC50
VALUE KIND: EC50
Answer format: number, then unit.

Worked cases, answers included:
[[record]]
molecule = "O=C(Nc1ccc(F)c(-n2cc3cc(N4CC5(CCOC5)C4)cnc3n2)c1)N1CC2(CCOC2)C1"
recorded_value = "379 nM"

[[record]]
molecule = "O=C(Nc1ccc(F)c(-n2cc3cc(-n4ccnc4)cnc3n2)c1)N1CC(F)C1"
recorded_value = "113 nM"

[[record]]
molecule = "O=C(Nc1ccc(F)c(-n2cc3cc(N4CCCC4)cnc3n2)c1)N1CC[C@@H](F)C1"
recorded_value = "5.4 nM"


Lookup: Quick one: give measured EC50 for O=C(Nc1ccc(F)c(-n2cc3cc(N4CC5(CCC5)C4)cnc3n2)c1)N1CC(F)C1
Found: 65 nM

###

- Tested on: Trypanosoma cruzi amastigotes cultured in 3T3 fibroblast cells
- RUN DESCRIPTION: Assay for growth inhibition of kinetoplastid parasite Trypanosoma cruzi (beta-galactosidase Tulahuen strain, CPRG readout)
- Assay type: cell-based
- CONDITION SUMMARY: Trypanosoma cruzi, Fibroblast, T. cruzi amastigotes in 3T3 fibroblast cells; read-out: Buckner infectious T. cruzi EC50
// returns 0 unless EC50 is strictly below 20 nM, in which case 1

Solved entries:
[[record]]
entry_smiles = "O=C(Nc1ccc(F)c(-n2cc3cc(C4CCC4)cnc3n2)c1)N1CC(F)C1"
assay_target = "Trypanosoma cruzi amastigotes cultured in 3T3 fibroblast cells"
class_assignment = 1

[[record]]
entry_smiles = "Cc1nc(C)c(C(=O)Nc2ccc(F)c(-n3cc4cc(C(C)(C)C)cnc4n3)c2)o1"
assay_target = "Trypanosoma cruzi amastigotes cultured in 3T3 fibroblast cells"
class_assignment = 0

[[record]]
entry_smiles = "Cc1ccoc1C(=O)Nc1ccc(F)c(-n2cc3cc(C(C)C)cnc3n2)c1"
assay_target = "Trypanosoma cruzi amastigotes cultured in 3T3 fibroblast cells"
class_assignment = 1

[[record]]
entry_smiles = "CC(C)c1cnc2nn(-c3cc(NC(=O)c4ccc(CN(C)C)o4)ccc3F)cc2c1"
assay_target = "Trypanosoma cruzi amastigotes cultured in 3T3 fibroblast cells"
class_assignment = 0

[[record]]
entry_smiles = "O=C(Nc1ccc(Cl)c(-n2cc3cc(N4CC(F)(F)C4)cnc3n2)c1)N1CCC1"
assay_target = "Trypanosoma cruzi amastigotes cultured in 3T3 fibroblast cells"
class_assignment = 1


Lookup: EC50 under 20 nM? Item: O=C(Nc1ccc(F)c(-n2cc3cc(N4CC(F)(F)C4)cnc3n2)c1)N1CC[C@@H](F)C1
Found: 1

Lookup: Is the reported EC50 for O=C(Nc1ccc(F)c(-n2cc3cc(N4CCN(CC(F)(F)F)CC4)cnc3n2)c1)N1CC(F)C1 strictly below 20 nM?
Found: 0

Lookup: Item O=C(Nc1ccc(F)c(-n2cc3cc(N4CC(F)(F)C4)cnc3n2)c1)N1CCC1 : EC50 beneath 20 nM, strictly?
Found: 1

###

Parameter pEC50: see the listing below.
- Tested on: L. donovani HU3 strain in mouse peritoneal macrophages
- RUN DESCRIPTION: Assay for inhibition of parasitemia of Leishmania donovani in mouse macrophages (SYBR Green nuclei count, high-content imaging)
- Format: cell-based
- CONDITION SUMMARY: Leishmania donovani, Peritoneal macrophage, L. donovani in mouse peritoneal macrophages; read-out: L. donovani in Mouse Macrophages EC50
- Protocol: Assay for Inhibition of Parasitemia of Leishmania donovani in Mouse Macrophages […] The next day, Leishmania parasites are isolated from the spleens of mice infected for 9-11 weeks and 4×10^5 isolated parasites in […] of the above media are added to each plate well. […] Infected cells are imaged with Evotec Opera high-content microscope, and the number of parasites in well is determined by counting parasite nuclei visualized by staining with Sybr® Green dye.
Field pEC50 (float): negative decimal logarithm of the concentration in molar.

[[record]]
molecule = "Cc1nc(CO)c(C(=O)Nc2ccc(F)c(-n3cc4cc(-c5ncccc5C)cnc4n3)c2)o1 [Compound 277]"
assay_target = "L. donovani HU3 strain in mouse peritoneal macrophages"
recorded_value = 6.86

[[record]]
molecule = "CC(C)c1cnc2nn(-c3cc(NC(=O)c4cc(Cl)ccc4F)ccc3F)cc2c1 [Compound 89]"
assay_target = "L. donovani HU3 strain in mouse peritoneal macrophages"
recorded_value = 6.57

[[record]]
molecule = "Cc1cccnc1-c1cnc2nn(-c3cc(NC(=O)C4=CC(C)(C)C4)ccc3F)cc2c1 [Compound 350]"
assay_target = "L. donovani HU3 strain in mouse peritoneal macrophages"
recorded_value = 7.24

[[record]]
molecule = "Cc1nc(C)c(C(=O)Nc2ccc(F)c(-n3cc4cc(C(C)C)cnc4n3)c2)o1 [Compound 351]"
assay_target = "L. donovani HU3 strain in mouse peritoneal macrophages"
recorded_value = 7.62

[[record]]
molecule = "O=C(Nc1ccc(F)c(-n2cc3cc(N4CCC4)cnc3n2)c1)N1CC(F)C1 [Compound 147]"
assay_target = "L. donovani HU3 strain in mouse peritoneal macrophages"
recorded_value = 7.59


Lookup: Determine its reported pEC50: O=C(Nc1ccc(F)c(-n2cc3cc(N4CC5CCC4CO5)cnc3n2)c1)N1CC(F)C1 (stereo not shown) [Compound 197]
Found: 7.89

Lookup: Report measured pEC50; entry is CC(C)(C)c1cnc2nn(-c3cc(NC(=O)N4CC[C@@H](F)C4)ccc3F)cc2c1 [Compound 47]
Found: 7.57

Lookup: Provide one value: measured pEC50 of O=C(Nc1ccc(F)c(-n2cc3cc(C4CCOCC4)cnc3n2)c1)N1CC(F)C1 [Compound 148]
Found: 7.92

Lookup: Provide pEC50 value for the following molecule: Cc1cc(C(=O)Nc2ccc(F)c(-n3cc4cc(C(C)C)cnc4n3)c2)c(C)o1 [Compound 72]
Found: 5.85

Lookup: Tell me its pEC50 given O=C(Nc1ccc(F)c(-n2cc3cc(C4CCCC4)cnc3n2)c1)c1ccco1 [Compound 56] as the entry.
Found: 6.26
